test system: Penicillium chrysogenum; assay: Antifungal activity against Penicillium chrysogenum MTCC 161 at 100 ug/ml after 48 hr by cup-plate method; format: functional; settings: MTCC 161, 48 h, read-out: DIZ
zone of inhibition at 100 µg/mL reference
Express it in mm; write the number only.

Known results for molecules:
INSERT INTO results (molecule, readout_name, measured_result) VALUES
  ('O=[N+]([O-])c1ccc(C2CC(c3cccc4ccccc34)=NN2c2ccccc2)cc1 (stereo unspecified)', 'zone of inhibition at 100 µg/mL', 10),
  ('NC(=O)N1N=C(c2cccc3ccccc23)CC1c1ccc([N+](=O)[O-])cc1 (stereo unspecified)', 'zone of inhibition at 100 µg/mL', 8),
  ('O=[N+]([O-])c1ccc(C2CC(c3cccc4ccccc34)=NN2)cc1 (stereo unspecified)', 'zone of inhibition at 100 µg/mL', 8),
  ('O=[N+]([O-])c1ccc(C2CC(c3cccc4ccccc34)=NN2c2ccc([N+](=O)[O-])cc2)cc1 (stereo unspecified)', 'zone of inhibition at 100 µg/mL', 9),
  ('O=[N+]([O-])c1ccc(C2CC(c3cccc4ccccc34)=NN2c2ccccc2[N+](=O)[O-])cc1 (stereo unspecified)', 'zone of inhibition at 100 µg/mL', 13);

Let's switch to this molecule now.
[Q] // lookup zone of inhibition at 100 µg/mL for NC(=S)N1N=C(c2cccc3ccccc23)CC1c1ccc([N+](=O)[O-])cc1 (stereo unspecified)
[A] 10
